# assay_details: in vivo
# Parameters: species or system BALB/c nude mice
# run_parameters: mouse, Muscle uptake
# Description: To complement the imaging studies, biodistribution experiments were performed. AR42J tumor-bearing mice were intravenously injected with 3.7 MBq of [^68Ga]Ga-DOTA-CCK2R-dimer (≈ 120 pmol) or [^68Ga]Ga-DOTA-CCK-66 (≈ 210 pmol) (dissolved in 200 μL of saline; n = 3/group). The mice were sacrificed at 30, 60, and 120 min post-injection, and the tissues of interest were excised, weighed, and analyzed for radioactivity using a γ-counter. […]
Numbered stars: 1 amine (or outer) side, 2 acyl side, 3 side chain; on linkers, the order of the positions; unused ones are H or OH. Square brackets hold non-standard residues; d marks the D form. Peptide text beside a SMILES is read from it. * marks the point of attachment. DOTA = O=C(O)CN1CCN(CC(=O)O)CCN(CC(=O)*)CCN(CC(=O)O)CC1; d(γGlu) = O=C(O)[C@@H](CCC(=O)[*:2])N[*:1]; 1Nal = N[C@@H](Cc1cccc2ccccc12)C(=O)O; NMeNle = CCCC[C@H](NC)C(=O)O; PEG4 = NCCOCCOCCOCCOCCC(=O)O
experimental_endpoint: tissue uptake at 2 h (%ID/g)

[
  {
    "compound": "CCCC[C@@H](C(=O)N[C@@H](CC(=O)O)C(=O)N[C@@H](Cc1cccc2ccccc12)C(N)=O)N(C)C(=O)[C@H](Cc1c[nH]c2ccccc12)NC(=O)CCOCCOCCOCCOCCNC(=O)CC[C@@H](NC(=O)CN1CCN(CC(=O)O)CCN(CC(=O)O)CCN(CC(=O)O)CC1)C(=O)O [[68Ga]Ga-DOTA-CCK-66, metal not drawn, reference compound] ({DOTA-d(γGlu)-PEG4}-W[NMeNle]D[1Nal]-NH2)",
    "unit_text": "%ID/g",
    "endpoint_value": 0.72
  }
]

----------
# assay_details: in vivo
# Design: species or system BALB/c nude mice
# run_parameters: mouse, Liver uptake
Numbered stars: 1 amine (or outer) side, 2 acyl side, 3 side chain; on linkers, the order of the positions; unused ones are H or OH. Square brackets hold non-standard residues; d marks the D form. Peptide text beside a SMILES is read from it. * marks the point of attachment. DOTA = O=C(O)CN1CCN(CC(=O)O)CCN(CC(=O)*)CCN(CC(=O)O)CC1; d(γGlu) = O=C(O)[C@@H](CCC(=O)[*:2])N[*:1]; 1Nal = N[C@@H](Cc1cccc2ccccc12)C(=O)O; NMeNle = CCCC[C@H](NC)C(=O)O; PEG4 = NCCOCCOCCOCCOCCC(=O)O

[
  {
    "molecule": "CCCC[C@@H](C(=O)N[C@@H](CC(=O)O)C(=O)N[C@@H](Cc1cccc2ccccc12)C(N)=O)N(C)C(=O)[C@H](Cc1c[nH]c2ccccc12)NC(=O)CCOCCOCCOCCOCCNC(=O)CC[C@@H](NC(=O)CN1CCN(CC(=O)O)CCN(CC(=O)O)CCN(CC(=O)O)CC1)C(=O)O [[68Ga]Ga-DOTA-CCK-66, metal not drawn, reference compound] ({DOTA-d(γGlu)-PEG4}-W[NMeNle]D[1Nal]-NH2)",
    "unit_text": "%ID/g",
    "tissue uptake at 2 h": 0.54
  }
]

----------
# assay_details: in vivo
# Set-up: species or system BALB/c nude mice
# run_parameters: female, BALB/c nude, mouse, iv, 3.7 MBq, total radioactivity, Tumor-to-Muscle ratio (T/M)
Numbered stars: 1 amine (or outer) side, 2 acyl side, 3 side chain; on linkers, the order of the positions; unused ones are H or OH. Square brackets hold non-standard residues; d marks the D form. Peptide text beside a SMILES is read from it. * marks the point of attachment. DOTA = O=C(O)CN1CCN(CC(=O)O)CCN(CC(=O)*)CCN(CC(=O)O)CC1; d(γGlu) = O=C(O)[C@@H](CCC(=O)[*:2])N[*:1]; 1Nal = N[C@@H](Cc1cccc2ccccc12)C(=O)O; NMeNle = CCCC[C@H](NC)C(=O)O; PEG4 = NCCOCCOCCOCCOCCC(=O)O
experimental_endpoint: tissue to tissue ratio at 1 h

[
  {
    "compound": "CCCC[C@@H](C(=O)N[C@@H](CC(=O)O)C(=O)N[C@@H](Cc1cccc2ccccc12)C(N)=O)N(C)C(=O)[C@H](Cc1c[nH]c2ccccc12)NC(=O)CCOCCOCCOCCOCCNC(=O)CC[C@@H](NC(=O)CN1CCN(CC(=O)O)CCN(CC(=O)O)CCN(CC(=O)O)CC1)C(=O)O [[68Ga]Ga-DOTA-CCK-66, metal not drawn, reference compound] ({DOTA-d(γGlu)-PEG4}-W[NMeNle]D[1Nal]-NH2)",
    "endpoint_value": 10.2
  }
]

----------
# assay_details: in vivo
# Set-up: species or system BALB/c nude mice
# run_parameters: mouse, Tumor uptake
Numbered stars: 1 amine (or outer) side, 2 acyl side, 3 side chain; on linkers, the order of the positions; unused ones are H or OH. Square brackets hold non-standard residues; d marks the D form. Peptide text beside a SMILES is read from it. * marks the point of attachment. DOTA = O=C(O)CN1CCN(CC(=O)O)CCN(CC(=O)*)CCN(CC(=O)O)CC1; d(γGlu) = O=C(O)[C@@H](CCC(=O)[*:2])N[*:1]; 1Nal = N[C@@H](Cc1cccc2ccccc12)C(=O)O; NMeNle = CCCC[C@H](NC)C(=O)O; PEG4 = NCCOCCOCCOCCOCCC(=O)O

[
  {
    "compound": "CCCC[C@@H](C(=O)N[C@@H](CC(=O)O)C(=O)N[C@@H](Cc1cccc2ccccc12)C(N)=O)N(C)C(=O)[C@H](Cc1c[nH]c2ccccc12)NC(=O)CCOCCOCCOCCOCCNC(=O)CC[C@@H](NC(=O)CN1CCN(CC(=O)O)CCN(CC(=O)O)CCN(CC(=O)O)CC1)C(=O)O [[68Ga]Ga-DOTA-CCK-66, metal not drawn, reference compound] ({DOTA-d(γGlu)-PEG4}-W[NMeNle]D[1Nal]-NH2)",
    "tissue uptake at 2 h [%ID/g]": 9.53
  }
]

----------
# assay_details: in vivo
# Design: species or system BALB/c nude mice
# run_parameters: female, BALB/c nude, mouse, iv, 3.7 MBq, total radioactivity, Tumor-to-Large intestine ratio (T/B)
Numbered stars: 1 amine (or outer) side, 2 acyl side, 3 side chain; on linkers, the order of the positions; unused ones are H or OH. Square brackets hold non-standard residues; d marks the D form. Peptide text beside a SMILES is read from it. * marks the point of attachment. DOTA = O=C(O)CN1CCN(CC(=O)O)CCN(CC(=O)*)CCN(CC(=O)O)CC1; d(γGlu) = O=C(O)[C@@H](CCC(=O)[*:2])N[*:1]; 1Nal = N[C@@H](Cc1cccc2ccccc12)C(=O)O; NMeNle = CCCC[C@H](NC)C(=O)O; PEG4 = NCCOCCOCCOCCOCCC(=O)O

[
  {
    "compound": "CCCC[C@@H](C(=O)N[C@@H](CC(=O)O)C(=O)N[C@@H](Cc1cccc2ccccc12)C(N)=O)N(C)C(=O)[C@H](Cc1c[nH]c2ccccc12)NC(=O)CCOCCOCCOCCOCCNC(=O)CC[C@@H](NC(=O)CN1CCN(CC(=O)O)CCN(CC(=O)O)CCN(CC(=O)O)CC1)C(=O)O [[68Ga]Ga-DOTA-CCK-66, metal not drawn, reference compound] ({DOTA-d(γGlu)-PEG4}-W[NMeNle]D[1Nal]-NH2)",
    "tissue to tissue ratio at 1 h": 13.3
  }
]

----------
# assay_details: in vivo
# Set-up: species or system BALB/c nude mice
# run_parameters: female, BALB/c nude, mouse, iv, 3.7 MBq, total radioactivity, Tumor-to-Lung ratio (T/B)
Numbered stars: 1 amine (or outer) side, 2 acyl side, 3 side chain; on linkers, the order of the positions; unused ones are H or OH. Square brackets hold non-standard residues; d marks the D form. Peptide text beside a SMILES is read from it. * marks the point of attachment. DOTA = O=C(O)CN1CCN(CC(=O)O)CCN(CC(=O)*)CCN(CC(=O)O)CC1; d(γGlu) = O=C(O)[C@@H](CCC(=O)[*:2])N[*:1]; 1Nal = N[C@@H](Cc1cccc2ccccc12)C(=O)O; NMeNle = CCCC[C@H](NC)C(=O)O; PEG4 = NCCOCCOCCOCCOCCC(=O)O
experimental_endpoint: tissue to tissue ratio at 1 h

[
  {
    "compound": "CCCC[C@@H](C(=O)N[C@@H](CC(=O)O)C(=O)N[C@@H](Cc1cccc2ccccc12)C(N)=O)N(C)C(=O)[C@H](Cc1c[nH]c2ccccc12)NC(=O)CCOCCOCCOCCOCCNC(=O)CC[C@@H](NC(=O)CN1CCN(CC(=O)O)CCN(CC(=O)O)CCN(CC(=O)O)CC1)C(=O)O [[68Ga]Ga-DOTA-CCK-66, metal not drawn, reference compound] ({DOTA-d(γGlu)-PEG4}-W[NMeNle]D[1Nal]-NH2)",
    "endpoint_value": 7.32
  }
]

Source: paper PMC12439480
